System: MCF7/HER2 cells
protocol.notes: MCF-7/HER-2 SRB Growth Assay
Assay type: cell-based
cond: Homo sapiens, read-out: Growth Data: MC7/HER2 (0.5% FBS)

{"columns": ["molecule", "IC50"],
 "data": [
  ["CC(C)c1cc(/C=C(\\C#N)S(=O)(=O)c2cccs2)cc(C(C)C)c1O [Compound 737]", "3000 nM"],
  ["Cc1cc(/C=C(\\C#N)S(=O)(=O)c2ccc(F)cc2)cc(C)c1O [Compound 744]", "46000 nM"],
  ["CC(C)c1cc(/C=C(\\C#N)S(=O)(=O)Cc2cccc(C(F)(F)F)c2)cc(C(C)C)c1O [Compound 736]", "1000 nM"],
  ["CC(C)(C)c1cc(/C=C(\\C#N)S(=O)(=O)Cc2cccc(C(F)(F)F)c2)cc(C(C)(C)C)c1O [Compound 735]", "500 nM"],
  ["CC(C)c1cc(/C=C(\\C#N)S(=O)(=O)NCc2ccccc2)cc(C(C)C)c1O [Compound 732]", "2500 nM"],
  ["CC(C)(C)c1cc(/C=C(\\C#N)S(=O)(=O)c2ccsc2)cc(C(C)(C)C)c1O [Compound 746]", "300 nM"],
  ["N#C/C(=C\\c1ccc(O)cc1Cl)S(=O)(=O)NCc1ccccc1 [Compound 733]", "16000 nM"],
  ["CC(C)(C)c1cc(/C=C(\\C#N)S(=O)(=O)c2ccc(F)cc2)cc(C(C)(C)C)c1O [Compound 740]", "7 nM"],
  ["Cc1cc(/C=C(\\C#N)S(=O)(=O)c2ccccc2)cc(C)c1O [Compound 748]", "46000 nM"],
  ["CC(C)c1cc(/C=C(\\C#N)S(=O)(=O)c2ccc(F)cc2)cc(C(C)C)c1O [Compound 741]", "1000 nM"],
  ["CC(C)c1cc(/C=C(\\C#N)S(=O)(=O)c2ccsc2)cc(C(C)C)c1O [Compound 738]", "3000 nM"],
  ["CC(C)(C)c1cc(/C=C(\\C#N)S(=O)(=O)c2cccs2)cc(C(C)(C)C)c1O [Compound 742]", "200 nM"],
  ["N#C/C(=C\\c1ccc(O)cc1Cl)S(=O)(=O)NCCCc1ccccc1 [Compound 734]", "7000 nM"],
  ["CC(C)c1cc(/C=C(\\C#N)S(=O)(=O)c2ccccc2)cc(C(C)C)c1O [Compound 731]", "1000 nM"],
  ["Cc1cc(/C=C(\\C#N)S(=O)(=O)Cc2cccc(C(F)(F)F)c2)cc(C)c1O [Compound 739]", "14000 nM"],
  ["CC(C)c1cc(/C=C(\\C#N)S(=O)(=O)c2ccccn2)cc(C(C)C)c1O [Compound 747]", "26000 nM"]
]}

* * *

Test system: 3T3/HER2 cells
protocol.notes: 3T3 Growth Assay (3T3/HER2)
Assay type: cell-based
cond: read-out: Growth Data: 3T3/HER2 10% FBS
Excerpt: The following examples illustrate the ability of the exemplary compounds to inhibit receptor tyrosine kinases, such as HER2 and/or EGFR. […] (7) Read the plate at dual wavelengths at 570 nm and 630 nm on Dynatech Elisa plate reader.
endpoint.name: IC50 (µM)

{"columns": ["compound", "result.comparator", "measured.number"],
 "data": [
  ["CC(C)(C)c1cc(/C=C(\\C#N)S(=O)(=O)Cc2cccc(C(F)(F)F)c2)cc(C(C)(C)C)c1O [Compound 735]", "=", 22],
  ["N#C/C(=C\\c1ccc(O)cc1Cl)S(=O)(=O)NCc1ccccc1 [Compound 733]", ">", 100],
  ["CC(C)c1cc(/C=C(\\C#N)S(=O)(=O)c2cccs2)cc(C(C)C)c1O [Compound 737]", "=", 90],
  ["CC(C)c1cc(/C=C(\\C#N)S(=O)(=O)c2ccc(F)cc2)cc(C(C)C)c1O [Compound 741]", "=", 75],
  ["CC(C)(C)c1cc(/C=C(\\C#N)S(=O)(=O)c2ccsc2)cc(C(C)(C)C)c1O [Compound 746]", "=", 40],
  ["CC(C)c1cc(/C=C(\\C#N)S(=O)(=O)c2ccsc2)cc(C(C)C)c1O [Compound 738]", ">", 100],
  ["CC(C)(C)c1cc(/C=C(\\C#N)S(=O)(=O)c2cccs2)cc(C(C)(C)C)c1O [Compound 742]", "=", 38],
  ["CC(C)c1cc(/C=C(\\C#N)S(=O)(=O)c2ccccc2)cc(C(C)C)c1O [Compound 731]", "=", 70],
  ["CC(C)c1cc(/C=C(\\C#N)S(=O)(=O)c2ccccn2)cc(C(C)C)c1O [Compound 747]", ">", 100],
  ["Cc1cc(/C=C(\\C#N)S(=O)(=O)c2ccccc2)cc(C)c1O [Compound 748]", ">", 100],
  ["CC(C)c1cc(/C=C(\\C#N)S(=O)(=O)Cc2cccc(C(F)(F)F)c2)cc(C(C)C)c1O [Compound 736]", "=", 55],
  ["CC(C)(C)c1cc(/C=C(\\C#N)S(=O)(=O)c2ccc(F)cc2)cc(C(C)(C)C)c1O [Compound 740]", "=", 20],
  ["CC(C)c1cc(/C=C(\\C#N)S(=O)(=O)NCc2ccccc2)cc(C(C)C)c1O [Compound 732]", "=", 95],
  ["Cc1cc(/C=C(\\C#N)S(=O)(=O)c2ccc(F)cc2)cc(C)c1O [Compound 744]", ">", 100],
  ["N#C/C(=C\\c1ccc(O)cc1Cl)S(=O)(=O)NCCCc1ccccc1 [Compound 734]", ">", 100]
]}

* * *

Below, each of the molecules is paired with its reported IC50 value.
target.system: EGFR (Homo sapiens, UniProt P00533)
Sequence (P00533 25-1210): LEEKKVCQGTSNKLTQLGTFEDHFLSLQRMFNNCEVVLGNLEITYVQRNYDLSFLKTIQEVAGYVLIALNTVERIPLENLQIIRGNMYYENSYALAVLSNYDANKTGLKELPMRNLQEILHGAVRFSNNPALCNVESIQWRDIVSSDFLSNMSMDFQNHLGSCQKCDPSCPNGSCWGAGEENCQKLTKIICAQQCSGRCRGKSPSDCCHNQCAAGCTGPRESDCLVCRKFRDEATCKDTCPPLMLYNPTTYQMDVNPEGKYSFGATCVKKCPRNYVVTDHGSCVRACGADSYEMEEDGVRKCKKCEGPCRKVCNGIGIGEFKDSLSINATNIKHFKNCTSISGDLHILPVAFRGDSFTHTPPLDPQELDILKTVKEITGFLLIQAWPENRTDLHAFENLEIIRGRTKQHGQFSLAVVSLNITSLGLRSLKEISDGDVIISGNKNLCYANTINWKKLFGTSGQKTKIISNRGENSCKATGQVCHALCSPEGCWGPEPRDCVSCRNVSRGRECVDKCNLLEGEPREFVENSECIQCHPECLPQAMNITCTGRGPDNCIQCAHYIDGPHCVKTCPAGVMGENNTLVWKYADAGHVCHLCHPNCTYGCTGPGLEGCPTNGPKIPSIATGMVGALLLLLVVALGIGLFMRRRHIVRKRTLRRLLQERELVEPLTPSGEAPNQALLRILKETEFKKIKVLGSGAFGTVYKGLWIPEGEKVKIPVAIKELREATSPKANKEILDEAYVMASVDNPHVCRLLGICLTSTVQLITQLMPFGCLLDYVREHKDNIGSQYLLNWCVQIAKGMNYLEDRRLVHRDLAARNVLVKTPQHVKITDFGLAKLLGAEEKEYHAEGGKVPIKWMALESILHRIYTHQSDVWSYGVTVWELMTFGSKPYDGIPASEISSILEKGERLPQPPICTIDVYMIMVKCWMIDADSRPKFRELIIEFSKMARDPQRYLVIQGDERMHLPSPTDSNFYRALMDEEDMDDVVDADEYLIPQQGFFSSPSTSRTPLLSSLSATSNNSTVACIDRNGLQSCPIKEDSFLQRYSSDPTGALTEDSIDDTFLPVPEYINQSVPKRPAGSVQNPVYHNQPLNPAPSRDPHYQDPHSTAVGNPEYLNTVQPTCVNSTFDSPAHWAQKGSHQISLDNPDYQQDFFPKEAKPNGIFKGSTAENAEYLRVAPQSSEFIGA
protocol.notes: EGFR Whole Cell Kinase Assay (ELISA)
cond: EGFR/C7 (NIH3T3) cells, 25 nM EGF
endpoint.name: IC50 (µM)

{"columns": ["mol", "result.comparator", "measured.number"],
 "data": [
  ["CC(C)c1cc(/C=C(\\C#N)S(=O)(=O)c2ccsc2)cc(C(C)C)c1O", "=", 79.2],
  ["Cc1cc(/C=C(\\C#N)S(=O)(=O)c2ccc(F)cc2)cc(C)c1O", ">", 100],
  ["CC(C)c1cc(/C=C(\\C#N)S(=O)(=O)c2ccccc2)cc(C(C)C)c1O", "=", 73.2],
  ["N#C/C(=C\\c1ccc(O)cc1Cl)S(=O)(=O)NCc1ccccc1", ">", 100],
  ["CC(C)c1cc(/C=C(\\C#N)S(=O)(=O)NCc2ccccc2)cc(C(C)C)c1O", "=", 58],
  ["CC(C)c1cc(/C=C(\\C#N)S(=O)(=O)/C(C#N)=C/c2cc(C(C)C)c(O)c(C(C)C)c2)cc(C(C)C)c1O", "<", 100],
  ["CC(C)c1cc(/C=C(\\C#N)S(=O)(=O)Cc2cccc(C(F)(F)F)c2)cc(C(C)C)c1O", "=", 100]
]}

* * *

target.system: EGFR (Homo sapiens, UniProt P00533)
protocol.notes: EGFR Whole Cell Kinase Assay (ELISA)
cond: EGFR/C7 (NIH3T3) cells, 25 nM EGF
Below, each of the compounds is paired with its reported IC50 value.

{"columns": ["compound", "IC50"],
 "data": [
  ["CC(C)(C)c1cc(/C=C(\\C#N)S(=O)(=O)c2cccs2)cc(C(C)(C)C)c1O [Compound 742]", "> 100 µM"],
  ["Cc1cc(/C=C(\\C#N)S(=O)(=O)Cc2cccc(C(F)(F)F)c2)cc(C)c1O [Compound 739]", "> 100 µM"],
  ["CC(C)c1cc(/C=C(\\C#N)S(=O)(=O)c2ccc(F)cc2)cc(C(C)C)c1O [Compound 741]", "52.7 µM"],
  ["CC(C)(C)c1cc(/C=C(\\C#N)S(=O)(=O)c2ccc(F)cc2)cc(C(C)(C)C)c1O [Compound 740]", "> 100 µM"]
]}

* * *

Below, each of the molecules is paired with its reported pIC50 value.
Test system: 3T3/HER2 cells
protocol.notes: 3T3 Growth Assay (3T3/HER2)
Assay type: cell-based
cond: read-out: Growth Data: 3T3/HER2 2% FBS
pIC50: −log10 of the molar value.

{"columns": ["mol", "pIC50"],
 "data": [
  ["CC(C)c1cc(/C=C(\\C#N)S(=O)(=O)c2ccccn2)cc(C(C)C)c1O", "< 4.00"],
  ["Cc1cc(/C=C(\\C#N)S(=O)(=O)c2ccccc2)cc(C)c1O", "< 4.00"],
  ["Cc1cc(/C=C(\\C#N)S(=O)(=O)c2ccc(F)cc2)cc(C)c1O", "< 4.00"]
]}
